test system: wheat; test: Test C pre-/postemergence test; assay type: in vivo, Triticum aestivum; settings: Preemergence, 31 g ai/ha; scale 0 to 100 (0 no effect, 100 complete control)
Measured Plant response rating, Wheat values are reported for all entries that follow.
Could you respond with only the numeric value?

INSERT INTO results (compound, result) VALUES
  ('Cn1nc(C(F)(F)F)c(C[S+]([O-])c2ccc(Cl)c[n+]2[O-])c1OCC(F)(F)F (racemic)', 40),
  ('CCn1nc(C(F)(F)F)c(CS(=O)(=O)c2cccc[n+]2[O-])c1OCC(F)(F)F', 0),
  ('CC(Oc1c(C[S+]([O-])c2cccc[n+]2[O-])c(C(F)(F)F)nn1C)C(F)(F)F (centres unmarked)', 20),
  ('Cn1nc(C(F)(F)F)c(C(Cl)S(=O)(=O)c2cccc[n+]2[O-])c1OC(F)F (centres unmarked)', 5),
  ('CCc1cc[n+]([O-])c([S+]([O-])Cc2c(C(F)(F)F)nn(C)c2OC(F)F)c1 (centres unmarked)', 50);

Quote Plant response rating, Wheat reported for Cc1cc[n+]([O-])c(S(=O)(=O)Cc2c(C(F)(F)F)nn(C)c2OCC(F)F)c1 please.
30

Note Plant response rating, Wheat for the compound shown: CCc1cc[n+]([O-])c(S(=O)(=O)Cc2c(C(F)(F)F)nn(C)c2OC(F)F)c1
0

Indicate the recorded Plant response rating, Wheat value for this compound: Cn1nc(C(F)(F)F)c(C[S+]([O-])c2cc(Br)cc[n+]2[O-])c1Cl (racemic)
0

// data source = patent US20100298141A1
